Measured Test F rating (% disease control) values are reported for all entries that follow.
- System: Blumeria graminis f. sp. tritici
- test-protocol: Test F: preventive spray on wheat seedlings, visual disease rating (wheat powdery mildew)
- Assay type: in vivo
- condition-label: no asterisk: standard test suspension, not 40 ppm
measure-name: Test F rating (% disease control) (%)

>>> test_result("Cc1cc(F)ccc1C(O)c1c(Br)nn(C)c1-c1c(F)cccc1F (centres unmarked)")
100
>>> test_result("Cc1nn(C)c(-c2c(F)cccc2Cl)c1C(O)c1c(Cl)cccc1Cl (centres unmarked)")
50
>>> test_result("Cc1nn(C)c(-c2c(F)cc(F)cc2F)c1C(=O)c1ccc(F)cc1F")
99
>>> test_result("COC(c1ccc(F)cc1Cl)c1c(C)nn(C)c1-c1c(F)cccc1Cl (centres unmarked)")
100
>>> test_result("Cn1nc(Br)c(C(O)c2ccc(F)cc2F)c1-c1c(F)cccc1F (centres unmarked)")
100
